All values here come from ChEMBL document CHEMBL1157609.

Test: Drug level in Sprague-Dawley rat liver at 5 mg/kg, po after 4 hrs by LC/MS analysis
Format: ADME, organism-based
Parameters: dose 5 mg/kg, route oral
Conditions: read-out: Drug uptake
experimental readout: concentration at 4 h (nM)

Recorded concentration at 4 h (compound C=C[C@@H]1C[C@]1(NC(=O)[C@@H]1C[C@@H]2CN1C(=O)[C@H](C1CCCCC1)NC(=O)OCCC/C=C/c1cccc3c1CN(C3)C(=O)O2)C(=O)NS(=O)(=O)C1CC1 ): 2800

1 = CC[C@@H]1C[C@]1(NC(=O)[C@@H]1C[C@@H]2CN1C(=O)[C@H](C(C)(C)C)NC(=O)OCCCCCc1cccc3c1CN(C3)C(=O)O2)C(=O)NS(=O)(=O)C1CC1
2 = C=C[C@@H]1C[C@]1(NC(=O)[C@@H]1C[C@@H]2CN1C(=O)[C@H](C(C)(C)C)NC(=O)OCCC/C=C/c1cccc(c1)CN(C)C(=O)O2)C(=O)NS(=O)(=O)C1CC1
// pick min by concentration at 4 h: 1 , 2 Indicate which entry you chose by stating its label.
2

P = C=C[C@@H]1C[C@]1(NC(=O)[C@@H]1C[C@@H]2CN1C(=O)[C@H](C1(C)CCCCC1)NC(=O)OCCC/C=C/c1cccc3c1CN(C3)C(=O)O2)C(=O)NS(=O)(=O)C1CC1
Q = CC[C@@H]1C[C@]1(NC(=O)[C@@H]1C[C@@H]2CN1C(=O)[C@H](C(C)(C)C)NC(=O)OCCC/C=C/c1cccc3c1CN(C3)C(=O)O2)C(=O)NS(=O)(=O)C1CC1
// pick min by concentration at 4 h: P , Q Indicate which entry you chose by stating its label.
P
(P: 1600 nM, Q: 3800 nM)

---

Test system: Hepatitis C virus
Experiment: Antiviral activity against HCV Con1 infected in human HuH7 cells assessed as inhibition of viral replication after 24 hrs by replicon assay in presence of 50% normal human serum
Format: functional, organism-based, Hepacivirus hominis
Conditions: Con1, Huh-7, 24 h
Listing of entries alongside the reported IC50.
Entry rule: numbers only, all in nM.

Please review the following examples before continuing.
Reported IC50 (Hepatitis C virus) for entry C=C[C@@H]1C[C@]1(NC(=O)[C@@H]1C[C@@H]2CN1C(=O)[C@H](C(C)(C)C)NC(=O)OCCC/C=C/c1cccc(c1)CN(C)C(=O)O2)C(=O)NS(=O)(=O)C1CC1 is 42

Reported IC50 (Hepatitis C virus) for entry C=C[C@@H]1C[C@]1(NC(=O)[C@@H]1C[C@@H]2CN1C(=O)[C@H](C(C)(C)C)NC(=O)OCCC/C=C/c1ccccc1CN(C)C(=O)O2)C(=O)NS(=O)(=O)C1CC1 is 610

Turning to the following molecule.
Reported IC50 (Hepatitis C virus) for entry C=C[C@@H]1C[C@]1(NC(=O)[C@@H]1C[C@@H]2CN1C(=O)[C@H](C(C)(C)C)NC(=O)OCCC/C=C/c1cccc3c1CCN(C3)C(=O)O2)C(=O)NS(=O)(=O)C1CC1 is 2900

---

Test system: Hepatitis C virus
Assay: Antiviral activity against HCV Con1 infected in human HuH7 cells assessed as inhibition of viral replication after 24 hrs by replicon assay in presence of 50% normal human serum
Type: functional, organism-based, Hepacivirus hominis
Details: Con1, Huh-7, 24 h
experimental readout: IC50 (nM)
Entry rule: numbers only, all in nM.

Recorded IC50 (compound C=C[C@@H]1C[C@]1(NC(=O)[C@@H]1C[C@@H]2CN1C(=O)[C@H](C1CCCC1)NC(=O)OCCC/C=C/c1cccc3c1CN(C3)C(=O)O2)C(=O)NS(=O)(=O)C1CC1 ): 23

Continuing:
Recorded IC50 (compound C=C[C@@H]1C[C@]1(NC(=O)[C@@H]1C[C@@H]2CN1C(=O)[C@H](CCCC)NC(=O)OCCC/C=C/c1cccc3c1CN(C3)C(=O)O2)C(=O)NS(=O)(=O)C1CC1 ): 26

Recorded IC50 (compound CC[C@@H]1C[C@]1(NC(=O)[C@@H]1C[C@@H]2CN1C(=O)[C@H](C(C)(C)C)NC(=O)OCC(C)(C)CCCCc1cccc3c1CN(C3)C(=O)O2)C(=O)NS(=O)(=O)C1CC1 ): 19

Recorded IC50 (compound C=C[C@@H]1C[C@]1(NC(=O)[C@@H]1C[C@@H]2CN1C(=O)[C@H](C1(C)CCCCC1)NC(=O)OCCC/C=C/c1cccc3c1CN(C3)C(=O)O2)C(=O)NS(=O)(=O)C1CC1 ): 38

Recorded IC50 (compound C=C[C@@H]1C[C@]1(NC(=O)[C@@H]1C[C@@H]2CN1C(=O)[C@H](C(C)C)NC(=O)OCCC/C=C/c1cccc3c1CN(C3)C(=O)O2)C(=O)NS(=O)(=O)C1CC1 ): 28

---

Tested on: Hepatitis C virus
Test: Antiviral activity against HCV Con1 infected in human HuH7 cells assessed as inhibition of viral replication after 24 hrs by replicon assay in presence of 50% normal human serum
Assay type: functional, organism-based, Hepacivirus hominis
Details: Con1, Huh-7, 24 h
experimental readout: IC50 (µM)
Entry rule: numbers only, all in µM.

Recorded IC50 (compound C=C[C@@H]1C[C@]1(NC(=O)[C@@H]1C[C@@H]2CN1C(=O)[C@H](C(C)(C)C)NC(=O)OCCCCC/C=C/c1cccc3c1CN(C3)C(=O)O2)C(=O)NS(=O)(=O)C1CC1 ): 0.023

Recorded IC50 (compound C=C[C@@H]1C[C@]1(NC(=O)[C@@H]1C[C@@H]2CN1C(=O)[C@H](C(C)(C)C)NC(=O)OCCCC/C=C/c1cccc3c1CN(C3)C(=O)O2)C(=O)NS(=O)(=O)C1CC1 ): 0.019

Recorded IC50 (compound CC[C@@H]1C[C@]1(NC(=O)[C@@H]1C[C@@H]2CN1C(=O)[C@H](C(C)(C)C)NC(=O)OCCC/C=C/c1cccc3c1CN(C3)C(=O)O2)C(=O)NS(=O)(=O)C1CC1 ): 0.11

Recorded IC50 (compound C=C[C@@H]1C[C@]1(NC(=O)[C@@H]1C[C@@H]2CN1C(=O)[C@H](C1CCCCC1)NC(=O)OCCC/C=C/c1cccc3c1CN(C3)C(=O)O2)C(=O)NS(=O)(=O)C1CC1 ): 0.024

---

Assay: Drug level in Sprague-Dawley rat liver at 5 mg/kg, po after 4 hrs by LC/MS analysis
Format: ADME, organism-based
Parameters: dose 5 mg/kg, route oral
Conditions: read-out: Drug uptake
experimental readout: concentration at 4 h (nM)

Recorded concentration at 4 h (molecule C=C[C@@H]1C[C@]1(NC(=O)[C@@H]1C[C@@H]2CN1C(=O)[C@H](CCCC)NC(=O)OCCC/C=C/c1cccc3c1CN(C3)C(=O)O2)C(=O)NS(=O)(=O)C1CC1 ): 460

1 = C=C[C@@H]1C[C@]1(NC(=O)[C@@H]1C[C@@H]2CN1C(=O)[C@H](C(C)(C)C)NC(=O)OCCCCCc1cccc3c1CN(C3)C(=O)O2)C(=O)NS(=O)(=O)C1CC1
2 = CC[C@@H]1C[C@]1(NC(=O)[C@@H]1C[C@@H]2CN1C(=O)[C@H](C(C)(C)C)NC(=O)OCC(C)(C)CCCCc1cccc3c1CN(C3)C(=O)O2)C(=O)NS(=O)(=O)C1CC1
// pick min by concentration at 4 h: 1 , 2 Indicate which entry you chose by stating its label.
1

---

Listing of entries alongside the reported pIC50.
Test system: Hepatitis C virus
Test: Antiviral activity against HCV Con1 infected in human HuH7 cells assessed as inhibition of viral replication after 24 hrs by replicon assay in presence of 50% normal human serum
Assay type: functional, organism-based, Hepacivirus hominis
Conditions: Con1, Huh-7, 24 h
The scale used: pIC50 is minus the common logarithm of the concentration in molar units.

Recorded pIC50 (compound C=C[C@@H]1C[C@]1(NC(=O)[C@@H]1C[C@@H]2CN1C(=O)[C@H](C(C)(C)C)NC(=O)OCCC/C=C/c1cccc3c1CN(CC3)C(=O)O2)C(=O)NS(=O)(=O)C1CC1 ): 6.85

Recorded pIC50 (compound CC[C@@H]1C[C@]1(NC(=O)[C@@H]1C[C@@H]2CN1C(=O)[C@H](C(C)(C)C)NC(=O)OCCCCCc1cccc3c1CN(C3)C(=O)O2)C(=O)NS(=O)(=O)C1CC1 ): 7.46

Recorded pIC50 (compound C=C[C@@H]1C[C@]1(NC(=O)[C@@H]1C[C@@H]2CN1C(=O)[C@H](C(C)(C)C)NC(=O)OCCC/C=C/c1cccc3c1CN(C3)C(=O)O2)C(=O)NS(=O)(=O)C1CC1 ): 7.49

Recorded pIC50 (compound C=C[C@@H]1C[C@]1(NC(=O)[C@@H]1C[C@@H]2CN1C(=O)[C@H](C(C)(C)C)NC(=O)OCCCCCc1cccc3c1CN(C3)C(=O)O2)C(=O)NS(=O)(=O)C1CC1 ): 7.57

Continuing:
Recorded pIC50 (compound C=C[C@@H]1C[C@]1(NC(=O)[C@@H]1C[C@@H]2CN1C(=O)[C@H](C(C)(C)C)NC(=O)OCC/C=C/c1cccc3c1CN(C3)C(=O)O2)C(=O)NS(=O)(=O)C1CC1 ): 6.41
